experiment: Tested for inhibition of chymotrypsinogen by the compound; NI = No Inhibition
property_name: k obs / 1

CC(C)[C@H](NC(=O)CCc1ccccc1)C(=O)N[C@@H](C)C(=O)NN(CC(=O)O)C(=O)[C@H]1O[C@@H]1C(=O)OCc1ccccc1 (stereo in doubt) :: 21 M⁻¹ s⁻¹

// next item, k obs / 1 requested
Entry CCOC(=O)[C@@H]1O[C@H]1C(=O)N(CC(=O)O)NC(=O)[C@@H](NC(=O)C(CCC(=O)O)NC(=O)[C@H](CC(C)C)NC(=O)OCc1ccccc1)[C@@H](C)O (stereo partly drawn) ; k obs / 1 = 15 M⁻¹ s⁻¹

====

target: Caspase-3 (Homo sapiens); experiment: Second-order inhibition rate of caspase-3 was determined by progress curve method
property_name: k2 (M⁻¹ s⁻¹)
State the answer as a number, implicitly in M⁻¹ s⁻¹.

CC(C)[C@H](NC(=O)OCc1ccccc1)C(=O)NN(CC(=O)O)C(=O)[C@H]1O[C@@H]1C(=O)O :: 1110

Observed k2 on Caspase-3 (Homo sapiens), entry CC(C)[C@H](NC(=O)CCc1ccccc1)C(=O)N[C@@H](C)C(=O)NN(CC(=O)O)C(=O)[C@H]1O[C@@H]1C(=O)NCC(O)c1ccccc1 (stereo partly drawn) , equals 510

Observed k2 on Caspase-3 (Homo sapiens), entry CCOC(=O)[C@H]1O[C@@H]1C(=O)N(CC(=O)O)NC(=O)[C@@H](NC(=O)[C@H](CCC(=O)O)NC(=O)OCc1ccccc1)C(C)C , equals 50500

====

molecular target: Cathepsin D (Homo sapiens); experiment: Tested for inhibition of human cathepsin D by the compound; NI = No Inhibition
Calls of active or inactive are those of the source. The rule behind the calls is not given here.
property_name: k obs / 1

CCOC(=O)[C@@H]1O[C@H]1C(=O)N(CC(=O)O)NC(=O)[C@@H](NC(=O)C(CCC(=O)O)NC(=O)[C@H](CC(=O)O)NC(=O)OCc1ccccc1)C(C)C (stereo partly drawn) :: inactive
CCOC(=O)[C@H]1O[C@@H]1C(=O)N(CC(=O)O)NC(=O)[C@@H](NC(=O)C(CCC(=O)O)NC(=O)[C@H](CC(C)C)NC(=O)OCc1ccccc1)[C@@H](C)O (stereo partly drawn) :: inactive
CCOC(=O)[C@H]1O[C@@H]1C(=O)N(CC(=O)O)NC(=O)[C@H](C)NC(=O)[C@@H](NC(=O)CCc1ccccc1)C(C)C :: inactive

====

molecular target: Caspase-6 (Homo sapiens) (UniProt P55212); test: Second-order inhibition rate of caspase-6 was determined by progress curve method
Sequence (P55212 24-179 limits assumed): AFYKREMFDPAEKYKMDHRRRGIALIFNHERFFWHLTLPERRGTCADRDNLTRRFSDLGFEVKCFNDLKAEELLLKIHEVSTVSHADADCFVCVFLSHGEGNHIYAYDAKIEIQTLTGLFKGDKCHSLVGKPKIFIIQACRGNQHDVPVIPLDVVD
Sequence (P55212 194-293 limits assumed): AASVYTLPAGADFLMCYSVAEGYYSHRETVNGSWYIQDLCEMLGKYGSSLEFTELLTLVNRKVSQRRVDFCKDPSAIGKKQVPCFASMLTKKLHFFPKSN
Parameter k2: see the listing below.
State the answer as a number, implicitly in M⁻¹ s⁻¹.

Recorded results for 4 molecules are shown here.
CC(C)[C@H](NC(=O)C(CCC(=O)O)NC(=O)[C@H](CC(=O)O)NC(=O)OCc1ccccc1)C(=O)NN(CC(=O)O)C(=O)[C@H]1O[C@@H]1C(=O)NCc1ccccc1 (stereo not given in full) :: 6000
CC(C)[C@H](NC(=O)OCc1ccccc1)C(=O)NN(CC(=O)O)C(=O)[C@H]1O[C@@H]1C(=O)O :: 90
CC(C)[C@H](NC(=O)C(CCC(=O)O)NC(=O)[C@H](CC(=O)O)NC(=O)OCc1ccccc1)C(=O)NN(CC(=O)O)C(=O)[C@H]1O[C@@H]1C(=O)OCc1ccccc1 (stereo not given in full) :: 12700
CC(C)C[C@H](NC(=O)OCc1ccccc1)C(=O)NC(CCC(=O)O)C(=O)N[C@H](C(=O)NN(CC(=O)O)C(=O)[C@H]1O[C@@H]1C(=O)OCc1ccccc1)[C@@H](C)O (stereo not given in full) :: 10300

// next item, k2 requested
Entry CCOC(=O)[C@H]1O[C@@H]1C(=O)N(CC(=O)O)NC(=O)[C@@H](NC(=O)[C@H](CCC(=O)O)NC(=O)[C@H](CC(=O)O)NC(=O)OCc1ccccc1)C(C)C ; k2 = 5440

====

target: Caspase-6 (Homo sapiens); assay: Second-order inhibition rate of caspase-6 was determined by progress curve method
property_name: k2 (M⁻¹ s⁻¹)
State the answer as a number, implicitly in M⁻¹ s⁻¹.

Recorded results for 5 molecules are shown here.
CC(C)[C@H](NC(=O)[C@H](CCC(=O)O)NC(=O)OCc1ccccc1)C(=O)NN(CC(=O)O)C(=O)[C@@H]1O[C@H]1C(=O)N[C@@H](Cc1ccccc1)C(N)=O :: 25
CCOC(=O)[C@H]1O[C@@H]1C(=O)N(CC(=O)O)NC(=O)[C@H](C)NC(=O)[C@@H](NC(=O)CCc1ccccc1)C(C)C :: 75
CC(C)[C@H](NC(=O)CCc1ccccc1)C(=O)N[C@@H](C)C(=O)NN(CC(=O)O)C(=O)[C@H]1O[C@@H]1C(=O)NCCc1ccccc1 :: 130
CCOC(=O)[C@H]1O[C@@H]1C(=O)N(CC(=O)O)NC(=O)[C@@H](NC(=O)[C@H](CCC(=O)O)NC(=O)OCc1ccccc1)C(C)C :: 4180
CC(C)[C@H](NC(=O)OCc1ccccc1)C(=O)NN(CC(=O)O)C(=O)[C@H]1O[C@@H]1CCc1ccccc1 :: 44

Entry CC(C)C[C@H](NC(=O)[C@H]1O[C@@H]1C(=O)N(CC(=O)O)NC(=O)[C@H](C)NC(=O)[C@@H](NC(=O)CCc1ccccc1)C(C)C)C(N)=O ; k2 = 71

====

biological target: Caspase-3 (Homo sapiens) (UniProt P42574); assay: Second-order inhibition rate of caspase-3 was determined by progress curve method
Sequence (P42574 29-175 limits assumed): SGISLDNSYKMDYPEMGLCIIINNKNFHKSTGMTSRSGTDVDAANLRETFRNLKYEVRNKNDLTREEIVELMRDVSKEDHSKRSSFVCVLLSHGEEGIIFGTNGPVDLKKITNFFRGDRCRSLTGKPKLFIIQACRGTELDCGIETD
Sequence (P42574 176-277 limits assumed): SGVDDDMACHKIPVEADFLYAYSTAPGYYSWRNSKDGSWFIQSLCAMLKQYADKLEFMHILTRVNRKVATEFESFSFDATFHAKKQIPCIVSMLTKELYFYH
property_name: k2 (M⁻¹ s⁻¹)
State the answer as a number, implicitly in M⁻¹ s⁻¹.

Recorded results for 2 molecules are shown here.
CC(C)[C@H](NC(=O)C(CCC(=O)O)NC(=O)[C@H](CC(=O)O)NC(=O)OCc1ccccc1)C(=O)NN(CC(=O)O)C(=O)[C@H]1O[C@@H]1C(=O)N[C@@H](Cc1ccccc1)C(N)=O (stereo partly drawn) :: 722000
CC[C@H](C)[C@H](NC(=O)OCc1ccccc1)C(=O)N[C@@H](CCC(=O)O)C(=O)N[C@H](C(=O)NN(CC(=O)O)C(=O)[C@@H]1O[C@H]1C(=O)OCc1ccccc1)[C@@H](C)O :: 3110

// next item, k2 requested
Entry CC(C)C[C@H](NC(=O)OCc1ccccc1)C(=O)NC(CCC(=O)O)C(=O)N[C@H](C(=O)NN(CC(=O)O)C(=O)[C@H]1O[C@@H]1C(=O)OCc1ccccc1)[C@@H](C)O (stereo partly drawn) ; k2 = 3520

====

molecular target: Pepsin A (Sus scrofa); test: Tested for inhibition of porcine pepsin by the compound; NI = No Inhibition
Calls of active or inactive are those of the source. The calls are words filed in the database; no cut-off is given here.
property_name: k obs / 1

CCOC(=O)[C@H]1O[C@@H]1C(=O)N(CC(=O)O)NC(=O)[C@H](C)NC(=O)[C@@H](NC(=O)CCc1ccccc1)C(C)C :: inactive
CC(C)[C@H](NC(=O)CCc1ccccc1)C(=O)N[C@@H](C)C(=O)NN(CC(=O)O)C(=O)[C@H]1O[C@@H]1C(=O)OCc1ccccc1 (stereo in doubt; 23d(S,S)) :: inactive
CCOC(=O)[C@@H]1O[C@H]1C(=O)N(CC(=O)O)NC(=O)[C@@H](NC(=O)C(CCC(=O)O)NC(=O)[C@H](CC(=O)O)NC(=O)OCc1ccccc1)C(C)C (stereo partly drawn) :: inactive

====

target: Caspase-8 (Homo sapiens); assay: Second-order inhibition rate of caspase-8 was determined by progress curve method
Parameter k2: see the listing below.
State the answer as a number, implicitly in M⁻¹ s⁻¹.

Recorded results for 3 compounds are shown here.
CC(C)C[C@H](NC(=O)OCc1ccccc1)C(=O)NC(CCC(=O)O)C(=O)N[C@H](C(=O)NN(CC(=O)O)C(=O)[C@H]1O[C@@H]1C(=O)OCc1ccccc1)[C@@H](C)O (stereo partly drawn) :: 72700
CC(C)C[C@H](NC(=O)[C@H]1O[C@@H]1C(=O)N(CC(=O)O)NC(=O)[C@H](C)NC(=O)[C@@H](NC(=O)CCc1ccccc1)C(C)C)C(N)=O :: 315
CCOC(=O)[C@H]1O[C@@H]1C(=O)N(CC(=O)O)NC(=O)[C@@H](NC(=O)[C@H](CCC(=O)O)NC(=O)[C@H](CC(=O)O)NC(=O)OCc1ccccc1)C(C)C :: 95500

Entry CCOC(=O)[C@H]1O[C@@H]1C(=O)N(CC(=O)O)NC(=O)[C@@H](NC(=O)C(CCC(=O)O)NC(=O)[C@H](CC(C)C)NC(=O)OCc1ccccc1)[C@@H](C)O (stereo partly drawn) ; k2 = 61200

Entry CCOC(=O)[C@@H]1O[C@H]1C(=O)N(CC(=O)O)NC(=O)[C@@H](NC(=O)[C@H](CCC(=O)O)NC(=O)[C@@H](NC(=O)OCc1ccccc1)[C@@H](C)CC)[C@@H](C)O ; k2 = 8800

Entry CC(C)[C@H](NC(=O)CCc1ccccc1)C(=O)N[C@@H](C)C(=O)NN(CC(=O)O)C(=O)[C@H]1O[C@@H]1C(=O)NCc1ccccc1 ; k2 = 9360
